- System: TPA-induced epidermal hyperplasia
- PROTOCOL: Inhibition of TPA-induced epidermal hyperplasia (epidermal thickness) on back skin of mice
- Assay type: in vivo, BALB/c mice
- TEST_SETTINGS: Mus musculus, read-out: IC50 for inhibition of epidermal thickening (M × 10^−4), from Hill equation; concentration that produced 50% of Emax
OBSERVATION_TYPE: IC50
Write the numeric value and append its unit.

Using the record for CCC(=O)OCC(=O)[C@@]1(OC(=O)CC)[C@H](C)C[C@H]2[C@H]3[C@H]([C@@H](O)C[C@@]21C)[C@@]1(C)C=CC(=O)C=C1C[C@H]3Cl [Alclometasone dipropionate] , report its IC50.
89 µM
